Observed pIC50 values for Coagulation factor X (Homo sapiens, UniProt P00742) are listed in what follows.
API: returns pIC50 as number; meaning -log10 of concentration in mol/L.

**Query** Entry under review: N=C(N)c1ccc2c(c1)nc(CN(C(=O)c1ccc(C(=O)O)cc1)c1ccc(OC3CCNC3)cc1)n2CC(=O)NC1CCCCC1 (stereo unspecified) . Reported pIC50?
**Result** 6.52

**Query** Thanks! And CC(=N)N1CCC(Oc2ccc(N(Cc3nc4cc(C(=N)N)ccc4n3CC(=O)NC3CCCCC3)C(=O)c3ccc(C(=O)O)cc3)cc2)C1 (stereo unspecified) ?
**Result** 7.00

**Query** Thanks! And CC(=N)N1CCC(Oc2ccc(N(Cc3nc4cc(C(=N)N)ccc4n3CC(=O)NCc3ccc(Cl)c(Cl)c3)C(=O)c3ccc(C(=O)O)cc3)cc2)CC1.Cl.Cl ?
**Result** 8.22

**Query** Thanks! And CC(=N)N1CCC(Oc2ccc(OCc3nc4cc(C(=N)N)ccc4n3CC(=O)NCc3ccccc3)cc2)CC1 ?
**Result** 7.00

**Query** Thanks! And N=C(N)c1ccc(Oc2ccc(N(Cc3nc4cc(C(=N)N)ccc4n3CC(=O)NC3CCCCC3)C(=O)c3ccc(C(=O)O)cc3)cc2)cc1 ?
**Result** 5.70

**Query** Thanks! And CC(=N)N1CCC(Oc2ccc(OCc3nc4cc(C(=N)N)ccc4n3CC(=O)Nc3ccccc3)cc2)CC1 ?
**Result** 7.00
